assay.remarks: Inhibition of purified calf eye lens ALR2 preincubated for 10 mins by UV spectrophotometry
Assay type: tissue-based, Bos taurus, Lens of camera-type eye
pIC50: −log10 of the molar value.
measurement.name: pIC50

{"columns": ["molecular.string", "measurement.name", "value.reported"],
 "data": [
  ["COC(=O)/C=C1/S/C(=N\\C(=O)c2ccccc2)N(c2cccc3ccccc23)C1=O", "pIC50", 5.50],
  ["COC(=O)/C=C1/S/C(=N\\C(=O)c2cccc(C)c2)N(c2ccccc2OC)C1=O", "pIC50", 5.20],
  ["COC(=O)/C=C1/S/C(=N\\C(=O)c2cccc(C)c2)N(c2cccc(Cl)c2)C1=O", "pIC50", 5.34]
]}
